For each record, write down the corresponding TGI.
Test system: HCT-15 colon
Experiment: NCI tumour cell line growth inhibition, 48 h

Exam item: Reported TGI, molecule C=CCN1C(=O)N/C(=C\c2ccc(Cl)cc2)C1=O : ____
Marked response: > 100 µM

Exam item: Give the measured TGI of CO[C@@]12C[C@@H](CNC(=O)c3cc(Br)c[nH]3)O[C@@H]1NC(=O)N2 .
Marked response: > 100 µM

Exam item: Give its TGI value. Item: CC(=O)/C(=C/N1C(=O)CC(=O)NC1=S)C(=O)Nc1ccccc1C
Marked response: > 100 µM

Exam item: Find the recorded TGI belonging to O=C1OC(c2ccccc2)(c2ccccc2)CC1CN1CCOCC1 (stereo not given) and report it.
Marked response: 29.6 µM

Exam item: Which measured TGI value corresponds to CCCCC1Cc2cc(OC)ccc2-c2nc3cc(OC)ccc3n21 (stereo not given) (tested in a mixture with another compound) ?
Marked response: 11.3 µM

Exam item: Item NC(=S)N/N=C1\C(=O)N(c2cccc([N+](=O)[O-])c2)C(=O)C1C(=O)Nc1cccc([N+](=O)[O-])c1 (stereo not given) has what recorded TGI?
Marked response: > 100 µM

Exam item: // lookup TGI for COc1ccc(/C=c2/[nH]c(=O)/c(=C\c3ccc(OCc4ccccc4)cn3)[nH]c2=O)cc1
Marked response: > 100 µM

Exam item: Requested field: TGI. Item: O=C1OC(c2ccccc2)=N/C1=C/c1cccs1
Marked response: > 100 µM

Exam item: Recorded TGI of Fc1ccc(Nc2ccc3cc(OCCCN4CCOCC4)ccc3n2)cc1F , please.
Marked response: 10.4 µM

Exam item: Quick one: TGI of C1=Cc2nc1c(-c1ccccc1)c1ccc([n-]1)c(-c1ccccc1)c1nc(c(-c3ccccc3)c3ccc([n-]3)c2-c2ccccc2)C=C1.[Zn+2] ?
Marked response: > 100 µM

----------
System: SF-268 CNS
Experiment: NCI tumour cell line growth inhibition, 48 h
MEASURED METRIC: GI50

Exam item: I have this molecule here, O=c1[nH]cnc2c1nnn2[C@@H]1O[C@H](CO)[C@@H](O)[C@H]1O , and I need its recorded GI50.
Marked response: 28.9 µM

Exam item: Request the reported GI50 associated with CO[C@H]1C[C@@H]2CC[C@@H](C)[C@@](O)(O2)C(=O)C(=O)N2CCCC[C@H]2C(=O)O[C@H]([C@H](C)C[C@@H]2CC[C@@H](OC(=O)C(C)(CO)CO)[C@H](OC)C2)CC(=O)[C@H](C)/C=C(\C)[C@@H](O)[C@@H](OC)C(=O)[C@H](C)C[C@H](C)/C=C/C=C/C=C/1C
Marked response: 2.99 µM

Exam item: Requested read-out: GI50. Entry: C=C1C(=O)O[C@H]2[C@H]1CC/C(Cn1cc(Cn3ccc4cc(Cl)ccc43)nn1)=C\CC[C@@]1(C)O[C@@H]21
Marked response: 1.65 µM

----------
Test system: MDA-N
Test: NCI tumour cell line growth inhibition, 48 h
Consider the following compounds; for each one, report its TGI.

Exam item: # query: TGI of entry O=c1[nH]c2nccn2c(Cl)c1Br
Marked response: 45.8 µM

Exam item: Param item = Cc1nn(-c2ccccc2)c2nc3c(c(C)nn3-c3ccccc3)c(-c3ccccc3Br)c12 ; retrieve measured TGI.
Marked response: > 100 µM

Exam item: Given the compound c1cncc(-c2cc(-c3cc(-c4cccnc4)n[nH]3)[nH]n2)c1 , what is its reported TGI?
Marked response: > 100 µM

Exam item: Any idea what its TGI is? The compound is CCC(=O)Nc1ccc2c(c1)CN1C(=O)c3ccccc3C1=N2
Marked response: > 100 µM

Exam item: I have this compound here, CCOC(=O)c1ccc(C(O)CC(=O)OC(C)(C)C)[nH]1 (centres undefined) , and I need its recorded TGI.
Marked response: 60.3 µM

Exam item: Suppose we examine the compound CCCOc1ccc(/C=C/C2=[N+](CCO)CCO2)cc1 ; what TGI value has been reported?
Marked response: > 100 µM

Exam item: Look up TGI for this compound: C[N+]1(C)C2CCC1CC(OC(=O)C(CO)c1ccccc1)C2 (centres undefined)
Marked response: > 100 µM

Exam item: Query (compound): CCOC(=O)C1C(C(C)C)C2(C#N)C(=N)OC1(C)C2(C#N)C#N (centres undefined) ; field requested: TGI
Marked response: 33.6 µM

Exam item: Which TGI is reported for this compound? C=CCNC(NCC=C)=C(C(Cl)=C(Cl)Cl)[N+](=O)[O-]
Marked response: > 100 µM

Exam item: I would be grateful if you could share the reported TGI for CCn1cc(C(=O)O)c(=O)c2cc(F)c(N3CCN(Cn4c(O)c(N=NC(=O)c5ccncc5)c5cc(Cl)ccc54)CC3)cc21 .
Marked response: > 100 µM

Exam item: Query (compound): C=C(CO)[C@H]1CC/C(C)=C/CC/C(C)=C/C/C=C(\C)[C@H](O)C1 ; field requested: TGI
Marked response: > 100 µM

Exam item: I am curious: what TGI value has been reported for COCC1OCCN1C (centres undefined) ?
Marked response: > 100 µM

Exam item: What value of TGI has been reported for the following compound? COc1ccc(/C=c2/[nH]c(=O)/c(=C\c3ccc(OCc4ccccc4)cn3)[nH]c2=O)cc1
Marked response: > 100 µM

Exam item: Can you share its TGI? I mean this compound: C[C@]12CC[C@@H]3c4ccc(OCC(=O)O)cc4CC[C@H]3[C@@H]1CCC2=O
Marked response: > 100 µM
